# Protocol Summary: small-molecule microarray binders of probe aNog, primary screen, biochemical, biotinylated probe, 635/667 nm fluorescence (AID 1115);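 note: probe is biotinylated aNog protein used at 0.15 µg/mL for 1 h at 4 C; z-score combines 667 nm fluorescence of each spot with its signal to noise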
# Measurement Context: higher = more signal
Classification by composite z-score | ranges: group A = under -0.3, group B = from -0.3 up to 0.5, group C = 0.5 and over

Reference set (3 entries):
Query: Sort into band: CC(C)N1C(=O)[C@@]2(Cc3ccccc31)c1ccccc1C(=O)N(C1CCCCC1)[C@H]2c1ccc(CO)cc1
Response: group A

Query: Please indicate the class for COCCn1c(C(=O)N2CCCC2)cc2c1C[C@H]1CN(C(=O)c3ccccc3)[C@@](Cc3ccc(F)cc3)(C(=O)OC)[C@@H]21 based on its composite z-score.
Response: group A

Query: Lab note: sort C#CCN(CC=C(C)C)[C@H](CO)c1ccccc1 into the matching composite z-score band.
Response: group B

Others:
Query: # bin label for CCc1oc(CC[C@@H](CO)NC(=O)NCCn2cc(C3(O)CCCCC3)nn2)c(C(=O)OC)c1C(=O)OC
Response: group B
